Attribution: patent US20070020327A1

# Assay target: HLA-A*0301 (human)
# Protocol text: competition with 125I-labelled standard peptide (941.12 [..]) for purified HLA-A*0301, gel filtration
Give measured binding affinity ratio (IC50 of standard peptide / IC50 of test peptide) for each item. Keep answers brief.
One number for each entry.

Binder: YGKVFRGNK (modifications not checked) [PSM.205 …]
Observed value: 0.0006

Binder: YDAQKLLEK (modifications not checked) [PSM.300 …]
Observed value: 0.0006

Binder: YDVLLSYPNK (modifications not checked) [PSM.113 …]
Observed value: 0.0005

Note: attention shifts to another entry.
# lookup: binding affinity ratio (IC50 of standard peptide / IC50 of test peptide) of YGIHKQKEK (modifications not checked) [PAP.247 …] 0.0006
